# Test system: A172
# Test: MTT cell viability assay, A172 glioma cells
# Assay type: cell-based
# Measurement Setup: human glioma cell line A172, five days exposure, mean of triplicate experiments, read-out: Mean IC50 ± SD, A172
Property Name: IC50 (µM)
# value in µM; strip the unit string

// query For the molecule Cn1nnc2c(C(N)=O)ncn2c1=O [TMZ, reference compound] , give its reported IC50.
// result 65.3

// query For the molecule COc1cc2c(cc1OC)C(Cc1ccc(-c3cnccc3OC)cc1)NCC2 (centres unmarked) [EDL-291 (9)] , give its reported IC50.
// result 41.2

###

Field: IC50. Provide a value for each of the molecules that follow.
# Tested on: U87
# Test: MTT cell viability assay, U87 glioma cells
# Assay type: cell-based
# Measurement Setup: human glioma cell line U87, five days exposure, mean of triplicate experiments, read-out: Mean IC50 ± SD, U87
Answer with the value and then the unit.

// query For the molecule Cn1nnc2c(C(N)=O)ncn2c1=O [TMZ, reference compound] , give its reported IC50.
// result 49.1 µM

// query For the molecule COc1cc2c(cc1OC)C(Cc1ccc(-c3cnccc3OC)cc1)NCC2 (centres unmarked) , give its reported IC50.
// result 66.5 µM
